The reported measurements were obtained from patent US20180230233A1.

Form field: pKd (one value per entry).
- Assayed Target: T1, recombinant His-tagged human tryptase beta 1 monomer (human, UniProt Q15661 31-275)
- T1 construct: also called His6-tagged tryptase monomer; human tryptase b1 monomer
- T1 sequence (Q15661 other isoform, or with tags, fused parts or gaps): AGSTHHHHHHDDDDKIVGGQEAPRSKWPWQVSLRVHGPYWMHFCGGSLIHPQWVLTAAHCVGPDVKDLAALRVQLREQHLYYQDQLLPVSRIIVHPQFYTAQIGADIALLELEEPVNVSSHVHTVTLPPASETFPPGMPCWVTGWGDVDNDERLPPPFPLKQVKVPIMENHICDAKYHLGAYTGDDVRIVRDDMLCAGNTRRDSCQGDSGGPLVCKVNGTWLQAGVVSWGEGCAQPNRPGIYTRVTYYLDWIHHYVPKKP
- Experiment Summary: SPR (BIAcore T200); IgG1 captured by anti-human Fc, His-tagged monomer injected
- Experimental: The assay can use a BIAcore® T200 or an equivalent device. […] Each sample is analyzed with 3 min association and 10 min dissociation. […] In this experiment, all the humanized variants were expressed as IgG by transient transfection of 293 cells. […] The affinity of each variant for recombinant His-tagged human tryptase beta 1 monomer (SEQ ID NO: 128) was determined by SPR analysis using a BIAcore® T200. […] Each sample was analyzed with 3 min association and 10 min dissociation. […]
// pKd: -log10(molar conc.)

Examples from the recorded data:
Binder: hu31A.v5 IgG1 (antibody, V domains shown, also called v5 (of hu31A)) VH: EVQLVESGGGLVQPGGSLRLSCAASGFTFSDYGMVWVRQAPGKGLEWVAFISSGSSTVYYADTMKGRFTISRDNSKNTLYLQMNSLRAEDTAVVYCARRDNYDWYFDVWGQGTLVTVSS VL: DIQMTQSPSSLSASVGDRVTITCSASSSVTYMYWYQQKPGKSPKPWIYRTSDLASGVPSRFSGSGSGTDFTLTISSLQPEDFATYYCQHYHSYPLTFGQGTKVEIK
pKd: 8.77

Binder: hu31A.v3 IgG1 (antibody, V domains shown, also called v3 (of hu31A)) VH: EVQLVESGGGLVQPGGSLRLSCAASGFTFSDYGMVWVRQAPGKGLEWVGFISSGSSTVYYADTMKGRFTISRDNSKNTLYLQMNSLRAEDTAVVYCARRDNYDWYFDVWGQGTLVTVSS VL: DIQLTQSPSSLSASVGDRVTITCSASSSVTYMYWYQQKPGKSPKPWIYRTSDLASGVPSRFSGSGSGTDYTLTISSLQPEDFATYYCQHYHSYPLTFGQGTKVEIK
pKd: 9.10

Here is another binder to look at.
[in] // lookup pKd for huE104.v9 IgG1 (chimeric heavy chain) (antibody, V domains shown, also called E104.v9 chimeric clone) VH: QSLEESGGGLFKPTDTLTLTCTVSRFSLIGYAITWVRQSPENGLEWIGGISSAATTFYSSWAKSRSTITRNTNENTVTLKMTSLTAADTATYFCARDPRGYGAALDRLDLWGQGTLVTVSS VL: DIQMTQSPSSLSASVGDRVTITCQSIKSVYNNRLGWYQQKPGKAPKLLIYETSILTSGVPSRFSGSGSGTDFTLTISSLQPEDFATYYCAGGFDRSGDTTFGQGTKVEIK
[out] 9.62
